Tested on: COLO 205
Test: NCI tumour cell line growth inhibition, 48 h
Calls of active or inactive are those of the source. No stated cut-off is given here; in the data, active = GI50 up to about 1.1 µM and inactive = higher.

{"Compound": "C=CCn1c(-c2ccc(Cl)cc2)cs/c1=N\\c1ccccc1OC", "GI50": "35.8 µM (inactive)"}
{"Compound": "Cc1ccc(C(C)(C)C[P+](C)(c2ccccc2)c2ccccc2)cc1", "GI50": "4.42 µM (inactive)"}
{"Compound": "CCOC(=O)C1(C/C=C\\CBr)CCCCCCC1=O (configuration not stated)", "GI50": "> 100 µM (inactive)"}
{"Compound": "CC1(C)C[C@H]2C3=CC[C@@H]4[C@@]5(C)CC[C@H](O)C(C)(C)[C@@H]5CC[C@@]4(C)[C@]3(C)C[C@@H](O)[C@@]23C[C@@H]1OC3=O", "GI50": "44.8 µM (inactive)"}
{"Compound": "O=C(CCc1ccccc1)NCCc1ccc(O)c(O)c1", "GI50": "17 µM (inactive)"}
{"Compound": "Cc1nc(C)c(N2CCN(C(=O)NC(CCC(=O)O)C(=O)O)CC2)c(O)n1 (configuration not stated)", "GI50": "> 100 µM (inactive)"}
{"Compound": "Cc1ccc(SC(=O)N2C(=S)N=C(NC3CCCCC3)C23CCCCC3)cc1", "GI50": "43.4 µM (inactive)"}
{"Compound": "COc1cccc(NC(=O)CC(=O)N2N=C(N(CCC#N)c3ccccc3C)CC2c2ccccc2)c1 (configuration not stated)", "GI50": "> 100 µM (inactive)"}
{"Compound": "CCOC(=O)Cc1nn2c(=O)cc(C)nc2s1", "GI50": "> 100 µM (inactive)"}
{"Compound": "O=C(O)c1ccccc1CC(Cc1ccc2c(c1)CCC2)C(=O)O (configuration not stated)", "GI50": "> 100 µM (inactive)"}
{"Compound": "Cc1cn(CCCCCCOC(=O)NC(CCCNC(=N)N)C(=O)O)c(=O)[nH]c1=O (configuration not stated)", "GI50": "> 100 µM (inactive)"}
{"Compound": "NNC(=O)CSc1nc2ccc(I)cc2c(=O)n1Cc1ccccc1", "GI50": "21.5 µM (inactive)"}
{"Compound": "CCOc1cc(/C=N\\N(C)C)cc(/C=N\\N(C)C)c1O", "GI50": "18.7 µM (inactive)"}
{"Compound": "CN(C)CCNC(=O)c1ccc(NC(=O)c2nc([N+](=O)[O-])cn2C)cc1", "GI50": "> 100 µM (inactive)"}
{"Compound": "COc1ccc(OC)c(CC(C)N)c1 (configuration not stated)", "GI50": "> 100 µM (inactive)"}
{"Compound": "O=C1C(=c2cc3c(c4ccccc24)=NC24CCCCC2C(c2ccccc2)C=C(c2ccccc2)N34)C(=O)c2ccccc21 (configuration not stated)", "GI50": "33 µM (inactive)"}
{"Compound": "[N-]=[N+]=Nc1ccc2c(c1)Sc1ccccc1N2CCCCN1CCN(Cc2ccc(C(=O)c3ccccc3)cc2)CC1", "GI50": "1.79 µM (inactive)"}
{"Compound": "CN(C(=O)C12C3C4C1C1C2C3C41C(=O)N(C)C(C)(C)C)C(C)(C)C (configuration not stated)", "GI50": "> 50 µM (inactive)"}
{"Compound": "Cc1c(C(=O)C/C(=N/NC(=O)CC#N)C(N)=O)[n+]([O-])c2ccccc2[n+]1[O-]", "GI50": "34.6 µM (inactive)"}
{"Compound": "CC(C)(C)C1CCC2c3c([nH]c4ccccc34)C3C(=O)N(c4cc(Br)cc(Br)c4)C(=O)C3C2C1 (configuration not stated)", "GI50": "19.6 µM (inactive)"}
{"Compound": "O=C(Nc1nn(C(=O)c2cccnc2)c(=O)s1)c1ccc(Cl)cc1", "GI50": "40.6 µM (inactive)"}
{"Compound": "Cc1cn([C@H]2CN(O)C[C@@H](CO)O2)c(=O)[nH]c1=O", "GI50": "> 100 µM (inactive)"}
{"Compound": "Cc1ccc(OCC2OC(n3cnc4nc(N)nc(Cl)c43)CC2Oc2ccc(C)cc2)cc1 (configuration not stated)", "GI50": "16.8 µM (inactive)"}
{"Compound": "CCOC(=O)NC", "GI50": "> 100 µM (inactive)"}
{"Compound": "CC(C)OP(=O)(OC(C)C)C(C(C)C)N(C)/C(F)=N/C(F)(F)F (configuration not stated)", "GI50": "> 100 µM (inactive)"}
{"Compound": "Cc1cn(CC2=NC3CCCCC3N2)c(=O)[nH]c1=O (configuration not stated)", "GI50": "> 100 µM (inactive)"}
{"Compound": "Cc1ccc(N2C(N)=C(C#N)C(C#N)(C#N)C2c2ccccc2)cc1 (configuration not stated)", "GI50": "10.2 µM (inactive)"}
{"Compound": "O=C(O)C1C(C(=O)Nc2ccc3c(c2)Cc2ccccc2-3)C2(Cl)C(Cl)=C(Cl)C1(Cl)C2(Cl)Cl (configuration not stated)", "GI50": "17.6 µM (inactive)"}
{"Compound": "O=c1c(C(c2ccc(Cl)cc2)c2c(O)c3ccccc3n(-c3ccccc3)c2=O)c(O)c2ccccc2n1-c1ccccc1", "GI50": "30.8 µM (inactive)"}
{"Compound": "COC(=O)[C@@H]1[C@H](O)CCC2=C(CC(=O)c3ccoc3)[C@H](C)CC[C@]21C", "GI50": "> 50 µM (inactive)"}
{"Compound": "CN(C)/C=N/c1ccc2nonc2c1", "GI50": "> 100 µM (inactive)"}
{"Compound": "O=C1OC(C2Cc3ccc4ccccc4c3C2=O)c2ccccc21 (configuration not stated)", "GI50": "> 100 µM (inactive)"}
{"Compound": "COC(=O)C1(C)NCCc2c1[nH]c1ccccc21 (configuration not stated)", "GI50": "> 100 µM (inactive)"}
{"Compound": "O=C(NC(OCc1ccccc1)(C(F)(F)F)C(F)(F)F)OCc1ccccc1", "GI50": "17.8 µM (inactive)"}
{"Compound": "CCN(CC)CCC(=O)Nc1ccc2sc3ccccc3c(=O)c2n1", "GI50": "12.9 µM (inactive)"}
{"Compound": "CCCCCOC(=O)c1cc2cc(CCl)ccc2oc1=O", "GI50": "2.36 µM (inactive)"}
{"Compound": "COC(=O)c1c(O)ccc2c1c1c(n2C)C(=O)c2ccccc2C1=O", "GI50": "65.9 µM (inactive)"}
{"Compound": "C[C@]12CCC(=O)C(OC(=O)c3ccc([N+](=O)[O-])cc3)=C1CCC2=O", "GI50": "98.6 µM (inactive)"}
{"Compound": "CN1CCN(CN2C(=O)C3C4C=CC(C3C2=O)C2C3C(=O)N(CN5CCN(C)CC5)C(=O)C3C42)CC1 (configuration not stated)", "GI50": "20.2 µM (inactive)"}
{"Compound": "Cc1cc(N(CCC#N)CCC#N)ccc1/C=C/C(=O)Nc1ccccc1Cl", "GI50": "> 100 µM (inactive)"}
{"Compound": "COC(=O)C(=O)C(C(=O)C(=O)Nc1cc(C)ccc1C)c1nc2ccccc2nc1O (configuration not stated)", "GI50": "> 100 µM (inactive)"}
{"Compound": "CC1(C)[N+]([O-])=[N+]([O-])C1(C)Br (configuration not stated)", "GI50": "> 100 µM (inactive)"}
